- Target Entity: B-Raf (V600E) (Homo sapiens (Human), UniProt P15056, V600E)
- Sequence (P15056 whole entry V600E): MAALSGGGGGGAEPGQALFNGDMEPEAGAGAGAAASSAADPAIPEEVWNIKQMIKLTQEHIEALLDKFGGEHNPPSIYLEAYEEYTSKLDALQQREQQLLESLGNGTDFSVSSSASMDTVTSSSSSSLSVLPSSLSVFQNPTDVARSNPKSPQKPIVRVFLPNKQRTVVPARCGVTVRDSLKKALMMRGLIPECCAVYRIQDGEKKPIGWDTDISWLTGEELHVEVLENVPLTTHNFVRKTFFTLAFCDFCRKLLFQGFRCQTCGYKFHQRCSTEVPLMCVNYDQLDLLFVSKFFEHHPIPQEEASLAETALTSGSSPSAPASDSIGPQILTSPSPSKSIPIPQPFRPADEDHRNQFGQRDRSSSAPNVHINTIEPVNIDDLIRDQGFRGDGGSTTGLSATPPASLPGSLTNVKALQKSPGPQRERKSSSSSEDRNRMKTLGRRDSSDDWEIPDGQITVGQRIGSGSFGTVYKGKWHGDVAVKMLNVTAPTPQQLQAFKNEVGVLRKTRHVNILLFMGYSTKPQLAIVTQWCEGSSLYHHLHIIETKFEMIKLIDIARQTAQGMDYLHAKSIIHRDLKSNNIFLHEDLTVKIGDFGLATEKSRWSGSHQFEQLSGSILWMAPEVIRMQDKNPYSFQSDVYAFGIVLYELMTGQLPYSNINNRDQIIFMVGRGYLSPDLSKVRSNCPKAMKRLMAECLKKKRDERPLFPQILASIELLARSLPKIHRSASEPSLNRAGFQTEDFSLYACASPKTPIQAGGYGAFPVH
- Assay Name: Raf kinase assay (B-Raf (V600E)), [33P] incorporation into MEK1(K97R)
- Format: biochemical
Result Type: IC50 (nM)

Query: Fetch value of IC50 on B-Raf (V600E) (Homo sapiens (Human), UniProt P15056, V600E) for Nc1ccc(F)c(-c2ccc3nccc(Nc4cccc5[nH]ncc45)c3c2)c1 [Compound 137] .
Reply: 152

P. CCOc1ccc(-c2ccc3ncnc(Nc4cccc5[nH]ncc45)c3c2)cc1 [Compound 93]
Q. COc1cc(-c2ccc3ncnc(Nc4cccc5[nH]ncc45)c3c2)ccc1F [Compound 84]
Query: Sorting by IC50 in descending order, would P or Q appear first? Reply with the label of the item you choose.
Reply: P

---

- System: A549
- Assay Name: Anti-proliferative activity, CellTiter-96 assay, A549
- Assay type: cell-based
- Test Settings: Homo sapiens, A549 cells, 72 hours incubation
Result Type: IC50 (µM)

Query: Let me know recorded IC50 for Oc1cccc(Nc2ncnc3ccc(-c4cccc(O)c4)cc23)c1 , thanks.
Reply: 5.3

Query: Kindly indicate its recorded IC50. Item: COc1cc(-c2ccc3nccc(Nc4cc(O)ccc4F)c3c2)ccc1O
Reply: 6.7

Query: Find the measured IC50 of COc1cc(-c2ccc3ncnc(Nc4cccc(O)c4)c3c2)ccc1O and report it.
Reply: 1.1

I. COc1cc(-c2ccc3ncnc(Nc4cccc5[nH]nc(Cl)c45)c3c2)ccc1O
II. COc1ccc(-c2ccc3ncnc(Nc4cccc5[nH]ncc45)c3c2)cc1F
III. COc1cc(-c2ccc3nccc(Nc4cccc(O)c4)c3c2)ccc1O
Query: Place the items in sequence of falling IC50. Your reply should list the labels following the order given in the request.
Reply: II, I, III

A. N#Cc1cccc(-c2ccc3nccc(Nc4cccc5[nH]ncc45)c3c2)c1
B. COc1cc(-c2ccc3ncnc(Nc4cccc(O)c4Cl)c3c2)ccc1O
C. CCCS(=O)(=O)Nc1cccc(-c2ccc3ncnc(Nc4cccc5[nH]ncc45)c3c2)c1
Query: Hi! Can you put these in order of IC50, lowest number first? Rank them, then answer with their labels in that order.
Reply: B, A, C
(B: 1.3 µM, A: 4.8 µM, C: 16.9 µM)

a. COc1cc(-c2ccc3ncnc(Nc4ccc(Cl)c(O)c4)c3c2)ccc1O
b. c1cc(Nc2ncnc3ccc(-c4ccc5[nH]ncc5c4)cc23)c2cn[nH]c2c1
Query: Hey, between a and b which has a smaller measured IC50? Could you answer with the label of the item you picked?
Reply: a
(a: 2.5 µM, b: 7.7 µM)

---

- Test system: COLO205
- Assay Name: Anti-proliferative activity, CellTiter-96 assay, COLO205
- Assay type: cell-based
- Test Settings: Homo sapiens, COLO 205, COLO205 cells, 72 hours incubation
Result Type: IC50 (µM)

P. CS(=O)(=O)c1ccc(-c2ccc3nccc(Nc4cccc5[nH]ncc45)c3c2)cc1
Q. CCCS(=O)(=O)Nc1cccc(-c2ccc3ncnc(Nc4cccc5[nH]ncc45)c3c2)c1
Query: Lab notebook, comparison: P versus Q , higher IC50 goes to which? Pick one; state its label.
Reply: Q
(Q: 13.6 µM, P: 7.3 µM)

---

- Tested on: A549
- Assay Name: Anti-proliferative activity, CellTiter-96 assay, A549
- Type: cell-based
- Test Settings: Homo sapiens, A549 cells, 72 hours incubation
Result Type: IC50 (µM)

Query: Give IC50 for the following compound: COc1cc(-c2ccc3ncnc(Nc4cccc5[nH]ncc45)c3c2)ccc1F [Compound 84]
Reply: 8.9

P. COc1ccc(-c2ccc3ncnc(Nc4cccc(O)c4)c3c2)cc1 [Compound 64]
Q. COc1cc(-c2ccc3ncnc(Nc4cccc5[nH]ncc45)c3c2)ccc1O [Compound 51]
R. COc1cc(-c2ccc3ncnc(Nc4ccc(F)cc4)c3c2)ccc1O [Compound 15]
Query: // ranking: key=IC50, reverse=True Answer by listing the labels in the requested order.
Reply: P, R, Q
(P: 11 µM, R: 2.5 µM, Q: 1.6 µM)

1. Nc1ccc(F)c(-c2ccc3nccc(Nc4cccc5[nH]ncc45)c3c2)c1 [Compound 137]
2. COc1cc(-c2ccc3ncnc(Nc4cc(O)c(F)cc4F)c3c2)ccc1O [Compound 158]
Query: Which value of IC50 is greater, the one for 1 or the one for 2 ? Mark your answer with the label of the selected entry.
Reply: 1
(1: 10.8 µM, 2: 0.9 µM)

---

- Target Entity: UniProt:P15056
- Assay Name: Raf kinase assay (B-Raf), [33P] incorporation into MEK1(K97R)
- Assay type: biochemical
- Test Settings: 1.0 μM compound; read-out: B-Raf inhibition at 1.0 μM
Result Type: inhibition at 1 µM (%)

Query: Determine its reported inhibition at 1 µM: Oc1ccc(-c2ccc3ncnc(Nc4cccc5[nH]ncc45)c3c2)cc1
Reply: 80.1

Query: Please look at this compound and report its inhibition at 1 µM: COc1ccc(-c2ccc3nccc(Nc4cccc5[nH]ncc45)c3c2)cc1OC
Reply: 75.5

Query: Identify measured inhibition at 1 µM corresponding to CS(=O)(=O)c1ccc(-c2ccc3nccc(Nc4cccc5[nH]ncc45)c3c2)cc1
Reply: 88.2

---

- Target Entity: UniProt:P15056
- Assay Name: Raf kinase assay (B-Raf), [33P] incorporation into MEK1(K97R)
- Assay type: biochemical
- Test Settings: 1.0 μM compound; read-out: B-Raf inhibition at 1.0 μM
Result Type: inhibition at 1 µM (%)

Query: Write down inhibition at 1 µM measured for item COc1ccc(-c2ccc3ncnc(Nc4cccc5[nH]ncc45)c3c2)cc1C
Reply: 71.1

Query: Provide one value: measured inhibition at 1 µM of N#Cc1ccc(-c2ccc3ncnc(Nc4cccc5[nH]ncc45)c3c2)cc1
Reply: 77.4

Query: State its inhibition at 1 µM for this compound: Nc1ccc(-c2ccc3ncnc(Nc4cccc5[nH]ncc45)c3c2)cc1
Reply: 75

---

- Target Entity: B-Raf (Homo sapiens (Human), UniProt P15056)
- Sequence (P15056 whole entry): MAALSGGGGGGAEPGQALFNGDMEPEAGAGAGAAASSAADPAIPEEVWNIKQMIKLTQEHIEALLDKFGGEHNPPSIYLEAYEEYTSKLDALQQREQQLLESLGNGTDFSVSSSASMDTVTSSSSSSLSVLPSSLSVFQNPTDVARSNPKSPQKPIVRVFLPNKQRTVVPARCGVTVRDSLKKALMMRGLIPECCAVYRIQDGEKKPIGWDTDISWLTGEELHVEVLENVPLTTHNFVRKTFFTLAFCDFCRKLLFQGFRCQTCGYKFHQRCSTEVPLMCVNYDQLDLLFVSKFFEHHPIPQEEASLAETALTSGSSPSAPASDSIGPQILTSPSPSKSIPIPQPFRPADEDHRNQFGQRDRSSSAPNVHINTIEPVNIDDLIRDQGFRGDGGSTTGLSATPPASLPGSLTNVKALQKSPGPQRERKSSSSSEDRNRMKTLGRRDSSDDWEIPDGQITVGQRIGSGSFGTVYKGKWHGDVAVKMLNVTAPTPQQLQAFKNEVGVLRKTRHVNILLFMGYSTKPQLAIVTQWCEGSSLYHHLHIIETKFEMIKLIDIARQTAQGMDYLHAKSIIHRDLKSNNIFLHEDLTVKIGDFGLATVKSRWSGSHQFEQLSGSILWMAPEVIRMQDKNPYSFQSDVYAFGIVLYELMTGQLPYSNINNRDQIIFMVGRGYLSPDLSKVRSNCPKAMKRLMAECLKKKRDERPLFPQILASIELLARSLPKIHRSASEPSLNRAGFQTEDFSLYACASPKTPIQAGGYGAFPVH
- Assay Name: Raf kinase assay (B-Raf), [33P] incorporation into MEK1(K97R)
- Type: biochemical
- Test Settings: 1.0 μM compound; read-out: B-Raf inhibition at 1.0 μM
- Method: A. Raf Kinase Assays (B-Raf, B-raf (V600E), and C-Raf) Inhibition of kinase activity by test compound disclosed herein was estimated by quantifying the amount of [^33P] incorporation of substrate in the presence of test compound. […] Reactions were incubated at 30° C. for 30 min and stopped by adding 3% phosphoric acid, harvested onto a 96-well GF/B UniFilter (PerkinElmer) using a unifilter harvester (PerkinElmer), and counted with a TopCount microplate scintillation counter (PerkinElmer). […]
Result Type: inhibition at 1 µM (%)

Worked examples, 5 molecules total:
Query: Give a short answer stating reported inhibition at 1 µM for N#Cc1cccc(-c2ccc3nccc(Nc4cccc5[nH]ncc45)c3c2)c1 .
Reply: 82.3

Query: Give recorded inhibition at 1 µM. CS(=O)(=O)c1ccc(-c2ccc3ncnc(Nc4cccc5[nH]ncc45)c3c2)cc1
Reply: 81.8

Query: Respond only with inhibition at 1 µM recorded for Nc1ccc(F)c(-c2ccc3nccc(Nc4cccc5[nH]ncc45)c3c2)c1
Reply: 78.2

Query: For the molecule COc1cc(-c2ccc3ncnc(Nc4cccc(C(F)(F)F)c4)c3c2)ccc1O , report inhibition at 1 µM.
Reply: 48.9

Query: Please give measured inhibition at 1 µM of the following entry: Fc1ccc(-c2ccc3ncnc(Nc4cccc5[nH]ncc45)c3c2)cc1Cl
Reply: 69.6

I. CN(C)c1ccc(-c2ccc3ncnc(Nc4cccc(O)c4)c3c2)cc1
II. COc1cc(-c2ccc3ncnc(Nc4ccc(Cl)cc4O)c3c2)ccc1O
III. COc1cc(-c2ccc3nccc(Nc4ccc(Cl)c(NS(C)(=O)=O)c4)c3c2)ccc1O
IV. CCNC(=O)Nc1ccc(-c2ccc3ncnc(Nc4ccccc4)c3c2)cc1
Query: Please list the entries, largest inhibition at 1 µM first. # output: labels, in the requested order
Reply: I, II, IV, III
(I: 78.7%, II: 47.6%, IV: 18.2%, III: 4.6%)

a. COc1ccc(-c2ccc3ncnc(Oc4cccc(O)c4)c3c2)cc1
b. CN(C)c1ccc(-c2ccc3ncnc(Nc4cccc5[nH]ncc45)c3c2)cc1
c. COc1cc(-c2ccc3ncnc(Nc4ccc(OC)c(OC)c4)c3c2)ccc1O
Query: Please produce an ascending ranking of these molecules based on inhibition at 1 µM. Sort and list the labels as requested.
Reply: c, b, a

---

- Target Entity: B-Raf (Homo sapiens (Human), UniProt P15056)
- Assay Name: Raf kinase assay (B-Raf), [33P] incorporation into MEK1(K97R)
- Format: biochemical
Result Type: IC50 (nM)

Query: Using the record for COc1ccc(-c2ccc3ncnc(Nc4cccc5[nH]ncc45)c3c2)cc1 [Compound 147] , state its measured IC50.
Reply: 680

a. CC(=O)Nc1ccc(-c2ccc3ncnc(Nc4cccc5[nH]ncc45)c3c2)cc1 [Compound 71]
b. COc1cc(-c2ccc3ncnc(Nc4ccc(O)cc4)c3c2)ccc1O [Compound 19]
c. COc1cc2ncnc(Nc3cccc(O)c3)c2cc1-c1ccc(O)cc1 [Compound 49]
d. Nc1ccc(-c2ccc3ncnc(Nc4cccc5[nH]ncc45)c3c2)cc1 [Compound 69]
Query: # rank_down: sort by IC50, max first Put the labels in the requested order and write them down.
Reply: b, a, d, c

Where these numbers come from: patent US8785459B2
